Target: Prostaglandin E2 receptor EP3 subtype (Homo sapiens)
Sequence (P43115 whole entry): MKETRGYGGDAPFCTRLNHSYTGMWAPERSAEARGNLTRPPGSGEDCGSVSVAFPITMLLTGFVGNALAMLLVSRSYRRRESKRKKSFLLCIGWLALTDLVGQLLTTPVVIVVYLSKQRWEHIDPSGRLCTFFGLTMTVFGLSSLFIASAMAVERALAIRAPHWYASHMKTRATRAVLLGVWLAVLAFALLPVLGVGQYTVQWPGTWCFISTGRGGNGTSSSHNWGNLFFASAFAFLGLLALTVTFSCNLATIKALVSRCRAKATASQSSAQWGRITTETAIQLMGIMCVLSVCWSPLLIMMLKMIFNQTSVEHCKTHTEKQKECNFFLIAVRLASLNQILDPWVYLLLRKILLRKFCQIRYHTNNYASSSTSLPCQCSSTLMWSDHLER
Assay: EP3 Radioligand SPA Binding Assay: Test compounds were half log serially diluted in 100% DMSO (J. T. Baker #922401). 1 uL of each compound was added to appropriate wells of a 384-well plate (Matrix Cat #4322). Unlabeled PGE2 (Tocris Cat #2296) at a final concentration of 1 uM was used to determine non-specific binding. 1 uL of 100% DMSO (J. T. Baker #922401) was used to determine total binding. Millipore EP3 Chem1 membranes (prepared in-house from cell paste derived from the Millipore ChemiSCREEN Human Recombinant EP3 Prostanoid Receptor Calcium-Optimized Stable Cell Line (Millipore Cat #HTS092C. http://www.millipore.com/catalogue/item/hts092c)) were thawed and diluted in binding buffer (50 mM Hepes pH 7.4 (Lonza Cat #17-737), 5 mM MgCl2 (Sigma-M1028), and 0.1% BSA (Sigma A-7409)) to a final concentration of 1 ug/25 uL. 25 uL of diluted membranes were added to prepared compound plates. WGA coated PVT SPA Beads (Perkin Elmer Cat #RPNQ0060) were diluted in binding buffer to a concentration of 4 ug/ul, and 25 uL of the SPA bead mixture was then added to each well for a final assay concentration of 100 ug/well. [3H]-PGE2 (Perkin Elmer Cat #NET428) was diluted in binding buffer to a concentration of 3.375 pM, and 25 uL was added to all wells for a final assay concentration of 1.125 nM. Plates were incubated for 30 minutes at r.t. (approximately 25° C.) with shaking. Radioactivity associated with each well was measured after a 10 hour incubation using a Wallac Trilux MicroBeta plate-based scintillation counter and a normalized protocol at 1 minute read/well.
Recorded metric: Ki
// unit must come after the numeric part

State the recorded Ki for this entry: Cn1ncc2c(F)cc(-c3ccc([C@@]4(C)CCCNC4=O)c(=O)[nH]3)cc21
13.9 nM
